From: PubChem BioAssay (NCI)

ASSAY PROTOCOL: NCI Yeast Anticancer Drug Screen. Data for the rad50 strain (AID 155)
MEASUREMENT CONTEXT: S. cerevisiae rad50 strain growth inhibition; at 50.0 µM (retest, dose inferred, filed as 5.0)
This is part of a sample that, as a whole, favours compounds with a hit. Of some 79,000 tested, about 15% had one in any assay. The source made the active and inactive calls. Rule as the data show it: active = growth inhibition above about 70%; inactive = the rest.
Field 'call' accepts TRUE = active, FALSE = inactive

Worked examples follow.
O=C(CSc1nnc(-c2ccc(N=Cc3ccc(Cl)cc3)cc2)o1)Nc1ccc(Cl)cc1Cl    TRUE
COc1cc(NCC(C#N)C#N)ccc1N=Nc1ccc(Cl)cc1    FALSE
COC1/C=C/OC2(C)Oc3c(C)c(O)c4c5c(cc(O)c4c3C2=O)N=C(O5)/C(C)=C\C=C\C(C)C(O)C(C)C(O)C(C)C(OC(C)=O)C1C (configuration not stated)    TRUE
CC(C)CCOC(=O)c1ccc(O)cc1.[Zn+2]    FALSE
Oc1c(Cl)cc(Cl)cc1/C=C1\C=Nc2ccccc21    FALSE

Q: Query: recorded result category for CCSC(=O)/C=C1\CN(C(=O)OC(C)(C)C)C1C(=O)OC(C)(C)C (configuration not stated) in this test
Ans: FALSE

Q: Note, next up: CCCCCCCCc1cc[n+](C2=C([O-])c3ccccc3C(=O)C2=O)cc1
Ans: TRUE

Q: Note, next up: CCCCN(CCCC)CN1C(=O)/C(=C/c2ccc(NC(C)=O)cc2)NC1=S
Ans: FALSE

Q: Note, next up: Nc1ccc2ccc3cccc4ccc1c2c34
Ans: TRUE

Q: Note, next up: Cc1ccc(N2C(c3ccccc3)=CC(=C3C=CC(=O)C=C3)C=C2c2ccccc2)cc1
Ans: TRUE

Q: Note, next up: CN(C)c1nc(N(C)C)nc([N+](C)(C)C)n1
Ans: FALSE

Q: Note, next up: Cc1cc(N2C(=O)CSC2=S)c([N+](=O)[O-])cc1C
Ans: TRUE

Q: Note, next up: Clc1cc(Cl)c(OCCOCCI)c(Cl)c1
Ans: FALSE

Q: Note, next up: C=C(C)COc1ccccc1C(OCC)OCC
Ans: FALSE

Q: Note, next up: CC/C(C)=N/OC(=O)Nc1ccccc1
Ans: FALSE

Q: Note, next up: O=C1c2ccccc2C(=O)c2ncccc21
Ans: TRUE

----------
ASSAY PROTOCOL: NCI Yeast Anticancer Drug Screen. Data for the bub3 strain (AID 167)
MEASUREMENT CONTEXT: S. cerevisiae bub3 mutant strain, at 5.0 µM (retest, dose inferred, filed as 0.5)
The panel holds about 79,000 compounds, 15% with a hit somewhere; the sample as a whole holds those more often. Calls of active or inactive are those of the source. Cut-off read from the data, not from the text of the source: active = growth inhibition above about 70%; inactive = the rest.
Field 'call' accepts active, inactive

CC12CC(O)C3C(CCC4CCCCC43C)C1CC/C2=N/O (stereo not given)    inactive

Q: Query: recorded result category for CC(=O)Nc1ccc(S(=O)(=O)/N=C2\C=CC(=O)c3ccccc32)cc1 in this test
Ans: inactive

Q: Note, next up: COc1c(O)cc2c(c1O)C(=O)C1=C(CCCC1)C2=O
Ans: inactive

Q: Note, next up: CC(=O)OCC1OC(n2ncc3c(Sc4c([N+](=O)[O-])ncn4C)ncnc32)C(OC(C)=O)C1OC(C)=O (stereo not given)
Ans: inactive

Q: Note, next up: CC1(C)CC(=O)C(CSC(=O)c2ccccc2)=C(O)C1
Ans: inactive

Q: Note, next up: CC(=O)NC1=C(Nc2ccc(-c3ccc(NC4=C(NC(C)=O)C(=O)c5ccccc5C4=O)cc3)cc2)C(=O)c2ccccc2C1=O
Ans: active

Q: Note, next up: O=C(CC1C(=O)c2ccccc2C1=C1C(=O)c2ccccc2C1=O)c1ccccc1 (stereo not given)
Ans: inactive

Q: Note, next up: O=C1CCSC(=S)N1c1ccc(Br)c(Cl)c1
Ans: inactive

Q: Note, next up: C=C1CC[C@@H]2C(C)(C)C(O)CCC2(C)C1COc1ccc2ccc(=O)oc2c1 (stereo not given in full)
Ans: inactive

Q: Note, next up: Nc1ccc(S(=O)(=O)NCc2nccs2)cc1
Ans: inactive
